System: Escherichia coli
Type: cell-based
condition_label: strain 058
experimental_endpoint: MIC E. coli 058

molecule | reported
CC(C)C[C@@H]1NC(=O)[C@@H](CC2CCCCC2)NC(=O)[C@H](CCN)NC(=O)[C@@H](NC(=O)[C@H](CCN)NC(=O)[C@@H](NC(=O)CC(CN)C2CCCCC2)[C@@H](C)O)CCNC(=O)[C@H]([C@@H](C)O)NC(=O)[C@H](CCN)NC(=O)[C@H](CCN)NC1=O (single isomer, unassigned; isomer 1) [Example 86] | 8 µg/mL
CC(C)C[C@@H]1NC(=O)[C@@H](CC2CCCCC2)NC(=O)[C@H](CCN)NC(=O)[C@@H](NC(=O)[C@H](CCN)NC(=O)[C@@H](NC(=O)CC(CN)Cc2ccccc2)[C@@H](C)O)CCNC(=O)[C@H]([C@@H](C)O)NC(=O)[C@H](CCN)NC(=O)[C@H](CCN)NC1=O (single isomer, unassigned; isomer 2) [Example 67] | 4 µg/mL
CC(C)C[C@@H]1NC(=O)[C@@H](CC2CCCCC2)NC(=O)[C@H](CCN)NC(=O)[C@@H](NC(=O)[C@H](CN)NC(=O)[C@@H](NC(=O)CC(CN)C2CCCCC2)C(C)O)CCNC(=O)[C@H]([C@@H](C)O)NC(=O)[C@H](CCN)NC(=O)[C@H](CCN)NC1=O (single isomer, unassigned; isomer 2) [Example 43] | 1 µg/mL

* * *

Tested on: Acinetobacter baumannii
Type: cell-based
Bridge positions count the residues as written; N and C are the ends. Square brackets hold non-standard residues; d marks the D form. Peptide text beside a SMILES is read from it. * marks the point of attachment. ξ: configuration not given here. dBip = N[C@H](Cc1ccc(-c2ccccc2)cc1)C(=O)O; X3 = CCCCCCCCN1CCNC[C@H]1C(=O)*; Thr(3ξ) = CC(O)[C@H](N)C(=O)O; X1 = CC(C)CN1CCNC[C@H]1C(=O)*; Dab = NCC[C@H](N)C(=O)O; Dap = NC[C@H](N)C(=O)O

compound | system | result_unit | MIC A. baumanii ATCC BAA-747
CCC(C)CC(CCN)C(=O)N[C@H](C(=O)N[C@@H](CN)C(=O)N[C@H]1CCNC(=O)[C@H]([C@@H](C)O)NC(=O)[C@H](CCN)NC(=O)[C@H](CCN)NC(=O)[C@H](CC(C)C)NC(=O)[C@@H](CC2CCCCC2)NC(=O)[C@H](CCN)NC1=O)C(C)O (single isomer, unassigned; isomer 2) | Acinetobacter baumannii | mg/L | 0.125
CC(C)C[C@@H]1NC(=O)[C@@H](Cc2ccc(-c3ccccc3)cc2)NC(=O)[C@H](CCN)NC(=O)[C@@H](NC(=O)[C@H](CN)NC(=O)[C@@H](NC(=O)[C@@H]2CNCCN2CC(C)C)C(C)O)CCNC(=O)[C@H]([C@@H](C)O)NC(=O)[C@H](CCN)NC(=O)[C@H](CCN)NC1=O (stereo partly drawn) [Example 5] (X1-[Thr(3ξ)][Dap][Dab][Dab][dBip]L[Dab][Dab]T; lactam 3-C) | Acinetobacter baumannii | mg/L | 0.125
CCCCCCCCN1CCNC[C@H]1C(=O)N[C@H](C(=O)N[C@@H](CN)C(=O)N[C@H]1CCNC(=O)[C@H]([C@@H](C)O)NC(=O)[C@H](CCN)NC(=O)[C@H](CCN)NC(=O)[C@H](CC(C)C)NC(=O)[C@@H](Cc2ccc(-c3ccccc3)cc2)NC(=O)[C@H](CCN)NC1=O)C(C)O (stereo partly drawn) [Example 30] (X3-[Thr(3ξ)][Dap][Dab][Dab][dBip]L[Dab][Dab]T; lactam 3-C) | Acinetobacter baumannii | mg/L | 1
